# subjectOfTest: T1, V1bR (Homo sapiens, UniProt P47901)
# T1 chain: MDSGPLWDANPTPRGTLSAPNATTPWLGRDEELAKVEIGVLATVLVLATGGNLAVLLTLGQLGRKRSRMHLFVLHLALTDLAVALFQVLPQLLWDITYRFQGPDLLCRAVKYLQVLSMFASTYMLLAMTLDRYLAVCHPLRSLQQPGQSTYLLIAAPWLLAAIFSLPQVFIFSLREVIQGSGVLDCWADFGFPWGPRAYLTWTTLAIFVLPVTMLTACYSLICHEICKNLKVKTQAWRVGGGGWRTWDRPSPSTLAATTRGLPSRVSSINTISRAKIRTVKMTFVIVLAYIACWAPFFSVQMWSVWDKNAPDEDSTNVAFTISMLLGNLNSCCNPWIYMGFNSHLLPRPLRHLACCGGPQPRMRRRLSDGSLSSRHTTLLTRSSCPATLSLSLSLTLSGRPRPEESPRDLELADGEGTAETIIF
# assayComment: radioligand displacement
Bridge positions count the residues as written; N and C are the ends. Square brackets hold non-standard residues; d marks the D form. Ends that are not written are not given here.

| binder | Ki |
| --- | --- |
| CLITNCP[dR]G-NH2 (disulfide 1-6 (inferred)) [[D-Arg8]-inotocin] | > 100 µM |
